- assaySystem: PI3Kβ (Homo sapiens, UniProt P42338)
- Construct: purchased SignalChem or BPS P28-10H / 40622
- Sequence (P42338 whole entry): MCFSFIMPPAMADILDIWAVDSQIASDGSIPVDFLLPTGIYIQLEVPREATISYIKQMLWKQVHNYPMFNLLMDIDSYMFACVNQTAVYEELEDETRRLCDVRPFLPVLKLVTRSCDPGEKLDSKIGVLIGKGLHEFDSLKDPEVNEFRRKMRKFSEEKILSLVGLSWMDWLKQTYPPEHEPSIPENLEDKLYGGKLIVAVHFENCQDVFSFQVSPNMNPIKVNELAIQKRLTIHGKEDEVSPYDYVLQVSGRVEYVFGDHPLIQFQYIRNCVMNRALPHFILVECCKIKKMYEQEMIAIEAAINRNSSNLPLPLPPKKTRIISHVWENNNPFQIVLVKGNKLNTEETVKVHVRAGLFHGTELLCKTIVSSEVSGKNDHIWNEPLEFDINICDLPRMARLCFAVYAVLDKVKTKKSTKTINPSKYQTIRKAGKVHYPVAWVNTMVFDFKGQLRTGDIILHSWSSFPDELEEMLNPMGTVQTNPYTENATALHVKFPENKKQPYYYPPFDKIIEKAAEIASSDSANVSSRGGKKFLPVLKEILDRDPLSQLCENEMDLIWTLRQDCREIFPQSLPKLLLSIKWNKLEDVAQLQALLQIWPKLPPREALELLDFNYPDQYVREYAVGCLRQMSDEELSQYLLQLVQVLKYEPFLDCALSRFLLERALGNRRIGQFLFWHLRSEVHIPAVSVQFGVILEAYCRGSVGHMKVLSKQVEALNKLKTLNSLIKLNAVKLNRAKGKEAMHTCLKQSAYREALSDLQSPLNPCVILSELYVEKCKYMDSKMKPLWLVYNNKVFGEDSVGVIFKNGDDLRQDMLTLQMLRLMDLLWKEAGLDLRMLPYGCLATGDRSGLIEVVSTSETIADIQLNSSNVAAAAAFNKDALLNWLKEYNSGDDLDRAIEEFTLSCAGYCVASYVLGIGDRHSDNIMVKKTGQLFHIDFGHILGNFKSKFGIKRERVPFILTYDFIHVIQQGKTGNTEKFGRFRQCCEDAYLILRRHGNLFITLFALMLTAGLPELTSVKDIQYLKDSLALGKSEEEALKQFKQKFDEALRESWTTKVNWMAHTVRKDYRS
- Sequence (P27986 whole entry partner): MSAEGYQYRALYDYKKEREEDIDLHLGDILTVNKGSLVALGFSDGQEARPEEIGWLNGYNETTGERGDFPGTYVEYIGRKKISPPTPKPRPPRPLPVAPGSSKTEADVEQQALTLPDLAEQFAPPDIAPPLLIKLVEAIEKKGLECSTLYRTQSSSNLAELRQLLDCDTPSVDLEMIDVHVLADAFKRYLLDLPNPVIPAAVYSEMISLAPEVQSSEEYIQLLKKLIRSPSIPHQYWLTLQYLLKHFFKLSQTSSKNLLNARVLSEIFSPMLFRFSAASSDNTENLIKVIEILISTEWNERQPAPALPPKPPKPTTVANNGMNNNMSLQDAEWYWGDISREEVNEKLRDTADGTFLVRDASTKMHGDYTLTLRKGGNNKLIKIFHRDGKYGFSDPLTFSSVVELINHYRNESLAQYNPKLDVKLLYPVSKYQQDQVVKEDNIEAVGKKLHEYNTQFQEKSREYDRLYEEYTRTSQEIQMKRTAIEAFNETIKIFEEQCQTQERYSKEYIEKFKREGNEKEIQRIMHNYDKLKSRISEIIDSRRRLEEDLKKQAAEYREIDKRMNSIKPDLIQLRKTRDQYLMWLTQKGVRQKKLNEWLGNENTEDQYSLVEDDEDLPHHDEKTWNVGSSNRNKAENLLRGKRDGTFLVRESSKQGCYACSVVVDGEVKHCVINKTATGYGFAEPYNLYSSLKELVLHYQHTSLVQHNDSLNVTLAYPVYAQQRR
- test: Kinase enzyme assay (ADP-Glo), PI3Kβ
- Type: biochemical
- protocolConditions: read-out: In Vitro Enzymatic IC50 PI3Kβ
pIC50: −log10 of the molar value.
readoutKind: pIC50

| querySmiles | reported |
| --- | --- |
| CC(C)n1cnc2c(N3CCOCC3)nc(-c3ccc(OCCCCCCC(=O)NO)cc3)nc21 | 6.00 to 7.00 |

INPUT: Write down pIC50 measured for item CC(C)n1cnc2c(-c3cnc(N)nc3)nc(NCCCCCC(=O)NO)nc21
OUTPUT: 6.00 to 7.00

----------
- System: BT474
- test: Anti-proliferative assay (cellular IC50), BT474
- protocolConditions: Homo sapiens, BT-474, read-out: In Vitro Cellular IC50 BT474
pIC50: −log10 of the molar value.
readoutKind: pIC50

| compound | assaySystem | reported |
| --- | --- | --- |
| CC(C)n1cnc2c(-c3cccc(OCCCC(=O)NO)c3)nc(N3CCOCC3)nc21 [compound 1] | BT474 | 5.70 to 6.30 |

INPUT: Write down pIC50 measured for item CCn1c(CN(C)Cc2ccc(C(=O)NO)cc2)nc2c(N3CCOCC3)nc(-c3cnc(N)nc3)nc21 [compound 7]
OUTPUT: > 6.30

INPUT: Write down pIC50 measured for item CS(=O)(=O)N1CCN(Cc2cc3nc(-c4cccc5[nH]ncc45)nc(N4CCOCC4)c3s2)CC1 [GDC-0941, reference compound]
OUTPUT: > 6.30

----------
- System: MV-4-11 cells
- test: Caspase activity assay, MV-4-11 cells
- Format: cell-based, human
- protocolConditions: Homo sapiens, MV4-11; MV-4-11 cells, maximal activity at 24 h; read-out: EC50 induction of caspase activity
readoutKind: EC50 (µM)
Enter your answer as a number in µM; do not include the unit.

INPUT: Write down EC50 measured for item CS(=O)(=O)N1CCN(Cc2cc3nc(-c4cccc5[nH]ncc45)nc(N4CCOCC4)c3s2)CC1 [GDC-0941, reference compound]
OUTPUT: 12.7

----------
- Tested on: Ramos
- test: Anti-proliferative assay (cellular IC50), Ramos
- protocolConditions: Homo sapiens, read-out: In Vitro Cellular IC50 Ramos
Overview of recorded IC50 for various compounds

Example compounds with recorded IC50:
| compound | IC50 |
| --- | --- |
| CCn1c(CN(C)Cc2ccc(C(=O)NO)cc2)nc2c(N3CCOCC3)nc(-c3cnc(N)nc3)nc21 | 500 to 2000 nM |
| CS(=O)(=O)N1CCN(Cc2cc3nc(-c4cccc5[nH]ncc45)nc(N4CCOCC4)c3s2)CC1 [GDC-0941, reference compound] | 2000 to 10000 nM |

Please examine the following record next.
INPUT: Write down IC50 measured for item CC(C)n1cnc2c(-c3cccc(OCCCC(=O)NO)c3)nc(N3CCOCC3)nc21
OUTPUT: < 500 nM

----------
Overview of recorded IC50 for various compounds
- assaySystem: HDAC (HeLa nuclear extracts)
- test: HDAC enzyme assay, HeLa nuclear extracts
- protocolConditions: read-out: In Vitro Enzymatic IC50 HDAC (HeLa)

Example compounds with recorded IC50:
| querySmiles | reported |
| --- | --- |
| O=C(CCCCCCn1cnc2c(N3CCC(O)CC3)nc(-c3cccc(CO)c3)nc21)NO | < 0.01 µM |
| CCN(CC)c1nc(-c2cccc(OCCCC(=O)NO)c2)c2ncn(C(C)C)c2n1 | 0.1 to 1 µM |
| CCn1c(CN(C)Cc2ccc(C(=O)NO)cc2)nc2c(N3CCOCC3)nc(-c3ccc(OC)nc3)nc21 | 0.1 to 1 µM |
| CC(C)n1cnc2c(N3CCOCC3)nc(-c3cccc(NC(=O)CCCCCCC(=O)NO)c3)nc21 | < 0.01 µM |
| CC(C)n1cnc2c(-c3cnc(N)nc3)nc(NCCCCCC(=O)NO)nc21 | < 0.01 µM |
| CCN(CC)c1nc2c(-c3cnc(N)nc3)nc(N3CCOCC3)nc2n1CCCC(=O)NO | 1 to 10 µM |

Please examine the following record next.
INPUT: Write down IC50 measured for item CCn1c(CN(C)Cc2ccc(/C=C/C(=O)NO)cc2)nc2c(N3CCOCC3)nc(-c3cccc(C(N)=O)c3)nc21
OUTPUT: 0.1 to 1 µM
